# System: DU-145
# assay.protocol: Inhibition of cell growth by counting cells, DU-145
# Format: cell-based, human
# condition.summary: Homo sapiens, DU-145, 72 h, read-out: IC50 (molar) DU-145
Criterion: IC50 strictly less than 5 nM. Met: T. Not met: F.

compound: CCCC(=O)Oc1c(C)c2c(c3c1[C@H]1SC[C@]4(NCCc5cc(OC(=O)OC(C)(C)C)c(OC)cc54)C(=O)OC[C@@H]3N3C1[C@H]1c4c(cc(C)c(OC)c4O)C[C@@H]([C@@H]3C#N)N1C)OCO2 (stereo partly shown) [Compound 111]
assigned.class: T

compound: CCCC(=O)Oc1cc2c(cc1OC)[C@@]1(CS[C@@H]3c4c(OC(C)=O)c(C)c5c(c4[C@H](COC1=O)N1C3[C@H]3c4c(cc(C)c(OC)c4O)C[C@@H]([C@@H]1C#N)N3C(=O)OC(C)(C)C)OCO5)NCC2 (stereo partly shown) [Compound 192]
assigned.class: F

compound: CCOc1cc2c(cc1OC)[C@@]1(CS[C@@H]3c4c(OC(C)=O)c(C)c5c(c4[C@H](COC1=O)N1C3[C@H]3c4c(cc(C)c(OC)c4OCC)C[C@@H]([C@@H]1C#N)N3C)OCO5)NCC2 (stereo partly shown) [Compound 38]
assigned.class: F

compound: C=CCOc1cc2c(cc1OC)[C@@]1(CS[C@@H]3c4c(OC(C)=O)c(C)c5c(c4[C@H](COC1=O)N1C3[C@H]3c4c(cc(C)c(OC)c4O)C[C@@H]([C@@H]1C#N)N3C)OCO5)NCC2 (stereo partly shown) [Compound 41]
assigned.class: T

compound: COc1cc2c(cc1OCc1ccccc1)CCN[C@]21CS[C@@H]2c3c(OC(C)=O)c(C)c4c(c3[C@H](COC1=O)N1C2[C@H]2c3c(cc(C)c(OC)c3O)C[C@@H]([C@@H]1C#N)N2C)OCO4 (stereo partly shown) [Compound 43]
assigned.class: T

compound: CCCOc1cc2c(cc1OC)[C@@]1(CS[C@@H]3c4c(OC(C)=O)c(C)c5c(c4[C@H](COC1=O)N1C3[C@H]3c4c(cc(C)c(OC)c4OCCC)C[C@@H]([C@@H]1C#N)N3C)OCO5)NCC2 (stereo partly shown) [Compound 40]
assigned.class: F

compound: COc1cc2c(cc1OC(=O)OC(C)(C)C)CCN[C@]21CS[C@@H]2c3c(OCc4ccccc4)c(C)c4c(c3[C@H](COC1=O)N1C2[C@H]2c3c(cc(C)c(OC)c3O)C[C@@H]([C@@H]1C#N)N2C)OCO4 (stereo partly shown) [Compound 134]
assigned.class: T

compound: COc1cc2c(cc1OC(=O)/C=C/c1ccccc1)CCN[C@]21CS[C@@H]2c3c(OC(C)=O)c(C)c4c(c3[C@H](COC1=O)N1C2[C@H]2c3c(cc(C)c(OC)c3OC(=O)/C=C/c3ccccc3)C[C@@H]([C@@H]1C#N)N2C)OCO4 (stereo partly shown) [Compound 10]
assigned.class: F

compound: COc1cc2c(cc1OC(=O)/C=C/c1ccccc1)CCN[C@]21CS[C@@H]2c3c(OC(C)=O)c(C)c4c(c3[C@H](COC1=O)N1C2[C@H]2c3c(cc(C)c(OC)c3O)C[C@@H]([C@@H]1C#N)N2C)OCO4 (stereo partly shown) [Compound 8]
assigned.class: T

compound: COc1cc2c(cc1OC(=O)/C=C/c1ccccc1)CCN[C@]21CS[C@@H]2c3c(OC(C)=O)c(C)c4c(c3[C@H](COC1=O)N1C2[C@H]2c3c(cc(C)c(OC)c3OC(=O)OC(C)(C)C)C[C@@H]([C@@H]1C#N)N2C)OCO4 (stereo partly shown) [Compound 49]
assigned.class: T

compound: C=CCOc1cc2c(cc1OC)[C@@]1(CS[C@@H]3c4c(OC(C)=O)c(C)c5c(c4[C@H](COC1=O)N1C3[C@H]3c4c(cc(C)c(OC)c4OCC=C)C[C@@H]([C@@H]1C#N)N3C)OCO5)NCC2 (stereo partly shown) [Compound 42]
assigned.class: F

compound: COc1cc2c(cc1OCc1ccccc1)CCN[C@]21CS[C@@H]2c3c(OC(C)=O)c(C)c4c(c3[C@H](COC1=O)N1C2[C@H]2c3c(cc(C)c(OC)c3OCc3ccccc3)C[C@@H]([C@@H]1C#N)N2C)OCO4 (stereo partly shown) [Compound 44]
assigned.class: F
